# experiment-description: Cytotoxicity study in THP-1 monocytes (Alamar Blue)
# Format: cell-based
# assay-context: human, read-out: Cytotoxic effect in THP-1 LC50 (micromolar, in parenthesis) (converted)
# Protocol: In vitro antileishmanial activity tests were carried out against the promastigote stage and axenically cultured amastigotes of L. aethiopica and L. donovani. […] Axenically cultured amastigotes were obtained from the late stationary phase promastigotes (3 × 10^6 cells/ml). […] The pH was adjusted to 5.5 using 1 N HCl. […] The parasites were kept for a week as some motile parasites with intermediate forms and short flagella were detected. […]
readout: CC50 at 72 h (µM)
I only need the number, in µM, no unit after it.

Q. Value lookup for CC50 at 72 h; key = O=C1c2c(O)cccc2C(C2OC(CO)C(O)C(O)C2O)c2cc(CO)cc(O)c21 (stereo not shown)
A. 369

Q. Value lookup for CC50 at 72 h; key = O=C1c2cccc(O)c2C(=O)c2c(O)cc(CO)cc21
A. 539

Q. Value lookup for CC50 at 72 h; key = C[C@@H]1[C@H](O)[C@@H](C)/C=C/C=C/C=C/C=C/C=C/C=C/C=C/[C@H](O[C@@H]2O[C@H](C)[C@@H](O)[C@H](N)[C@@H]2O)C[C@@H]2O[C@](O)(C[C@@H](O)C[C@@H](O)[C@H](O)CC[C@@H](O)C[C@@H](O)CC(=O)O[C@H]1C)C[C@H](O)[C@H]2C(=O)O [Amphotericin B, amphotericin B, reference compound]
A. 11.1

Q. Value lookup for CC50 at 72 h; key = O=C(O)c1cc(O)c2c(c1)C(=O)c1cccc(O)c1C2=O
A. 612

---

# Tested on: Leishmania donovani promastigotes
# experiment-description: In vitro antipromastigote assay (resazurin fluorescence)
# Format: cell-based
# assay-context: L. donovani promastigotes, 72 h, read-out: Antipromastigote activity IC50 (micromolar, in parenthesis) (converted)
readout: IC50 (µM)
I only need the number, in µM, no unit after it.

Q. Missing value: IC50, Leishmania donovani promastigotes, entry O=C1c2cccc(O)c2C(=O)c2c(O)cc(CO)cc21 . Fill in?
A. 10.6

Q. Missing value: IC50, Leishmania donovani promastigotes, entry C[C@@H]1[C@H](O)[C@@H](C)/C=C/C=C/C=C/C=C/C=C/C=C/C=C/[C@H](O[C@@H]2O[C@H](C)[C@@H](O)[C@H](N)[C@@H]2O)C[C@@H]2O[C@](O)(C[C@@H](O)C[C@@H](O)[C@H](O)CC[C@@H](O)C[C@@H](O)CC(=O)O[C@H]1C)C[C@H](O)[C@H]2C(=O)O [Amphotericin B, amphotericin B, reference compound] . Fill in?
A. 2.7

Q. Missing value: IC50, Leishmania donovani promastigotes, entry O=C(O)c1cc(O)c2c(c1)C(=O)c1cccc(O)c1C2=O . Fill in?
A. 7.3

Q. Missing value: IC50, Leishmania donovani promastigotes, entry O=C1c2c(O)cccc2C(C2OC(CO)C(O)C(O)C2O)c2cc(CO)cc(O)c21 (stereo not shown) . Fill in?
A. 12.1

---

# System: Leishmania aethiopica promastigotes
# experiment-description: In vitro antipromastigote assay (resazurin fluorescence)
# Assay type: cell-based
# assay-context: L. aethiopica promastigotes, 72 h, mean ± SD, n = 3, read-out: Antipromastigote activity IC50
readout: IC50 (µg/mL)
I only need the number, in µg/mL, no unit after it.

Q. Value lookup for IC50; key = O=C1c2cccc(O)c2C(=O)c2c(O)cc(CO)cc21 [Aloe-emodin, aloe-emodin]
A. 2.81

Q. Value lookup for IC50; key = O=C1c2c(O)cccc2C(C2OC(CO)C(O)C(O)C2O)c2cc(CO)cc(O)c21 (stereo not shown) [Aloin A/B, aloin A/B]
A. 3.94

Q. Value lookup for IC50; key = C[C@@H]1[C@H](O)[C@@H](C)/C=C/C=C/C=C/C=C/C=C/C=C/C=C/[C@H](O[C@@H]2O[C@H](C)[C@@H](O)[C@H](N)[C@@H]2O)C[C@@H]2O[C@](O)(C[C@@H](O)C[C@@H](O)[C@H](O)CC[C@@H](O)C[C@@H](O)CC(=O)O[C@H]1C)C[C@H](O)[C@H]2C(=O)O [Amphotericin B, amphotericin B, reference compound]
A. 2.43

Q. Value lookup for IC50; key = O=C(O)c1cc(O)c2c(c1)C(=O)c1cccc(O)c1C2=O [Rhein, rhein]
A. 1.91
